target: CTX-M-15 (Escherichia coli); test: Competition assay with nitrocefin (IC50); format: biochemical; conditions: read-out: IC50 (95% CI); competition with nitrocefin
Sequence (Q9EXV5 entry or part of it): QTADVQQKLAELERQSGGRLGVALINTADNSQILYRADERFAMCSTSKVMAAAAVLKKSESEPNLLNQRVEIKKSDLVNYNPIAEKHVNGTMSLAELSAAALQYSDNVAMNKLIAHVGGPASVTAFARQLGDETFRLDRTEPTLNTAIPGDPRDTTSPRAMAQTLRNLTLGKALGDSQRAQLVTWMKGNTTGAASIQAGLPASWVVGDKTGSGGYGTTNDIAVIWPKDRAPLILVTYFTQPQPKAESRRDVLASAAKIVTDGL
pIC50: −log10 of the molar value.
PROPERTY NAME: pIC50

[Q] What is its pIC50 for CTX-M-15 (Escherichia coli)? Entry: Nc1nc(/C(=C/CC(=O)O)C(=O)N[C@@H]2C(=O)N3C(C(=O)O)=CCS[C@H]23)cs1 [Ceftibuten, ceftibuten]
[A] < 3.00

----------
Below, each of the compounds is paired with its reported MIC value.
test system: Enterobacter cloacae isolates; experiment: MIC of cephalosporins alone or with clavulanate/tazobactam; type: cell-based; settings: AECL1067 (CTX-M-3), clavulanate 2:1, tazobactam 4 μg/mL

Solved entries:
Nc1nc(/C(=C/CC(=O)O)C(=O)N[C@@H]2C(=O)N3C(C(=O)O)=CCS[C@H]23)cs1
32 µg/mL
COCC1=C(C(=O)O)N2C(=O)[C@@H](NC(=O)/C(=N\OC)c3csc(N)n3)[C@H]2SC1
> 64 µg/mL
O=C(O)[C@H]1/C(=C/CO)O[C@@H]2CC(=O)N21 [Clavulanate, clavulanic acid]
64 µg/mL
C=CC1=C(C(=O)O)N2C(=O)[C@@H](NC(=O)/C(=N\OCC(=O)O)c3csc(N)n3)[C@H]2SC1
> 64 µg/mL
C[C@]1(Cn2ccnn2)[C@H](C(=O)O)N2C(=O)C[C@H]2S1(=O)=O
> 64 µg/mL

The record that follows has no MIC shown yet.
[Q] Can you share its MIC? I mean this compound: CO/N=C(\C(=O)N[C@@H]1C(=O)N2C(C(=O)[O-])=C(C[N+]3(C)CCCC3)CS[C@H]12)c1csc(N)n1 [Cefepime, cefepime]
[A] > 32 µg/mL
